All figures here come from patent US12221432B2.

assay: Pharmacokinetics study in mice (cassette); format: in vivo; conditions: female, Balb/c, plasma, po; mouse cassette PK, p.o. 2 mg/kg
Counter-ions that a name gives are not always drawn.
Assignment: determine reported half-life for the given compounds.
Numbers only, in h.

>  <compound>
CC/C(=C(/c1ccc(OCCNC/C=C/C(=O)N(C)C)nc1)c1[nH]c2ccccc2c1Cl)c1ccccc1 [Compound 3 monohydrochloride]

>  <unit-abbrev>
h

>  <half-life>
8.12

$$$$

Continue with the next compound.
Q: Returns the measured half-life for the input compound. Input: CC/C(=C(/c1ccc(OCCNC/C=C/C(=O)N(C)C)nc1)c1[nH]c2ccccc2c1Cl)c1cccc(OC)c1 [Compound 4 monohydrochloride]
Ans: 3.25

----------
assay: Pharmacokinetics study in mice (cassette); type: in vivo; details: female, Balb/c, plasma, po; mouse cassette PK, p.o. 2 mg/kg
Where a name gives a salt, the structure may show the parent alone.
Assignment: determine reported bioavailability for the given molecules.
Give bare numbers, in %.

>  <molecule>
CC/C(=C(/c1ccc(OCCNC/C=C/C(=O)N(C)C)nc1)c1[nH]c2ccccc2c1Cl)c1ccccc1 [Compound 3 monohydrochloride]

>  <observed-value>
26.1

$$$$

Q: Returns the measured bioavailability for the input molecule. Input: CC/C(=C(/c1ccc(OCCNC/C=C/C(=O)N(C)C)nc1)c1[nH]c2ccccc2c1Cl)c1cccc(OC)c1 [Compound 4 monohydrochloride]
Ans: 22.9

----------
Assignment: determine reported AUC(0-t) for the given compounds.
Assay: Pharmacokinetics study in rats (cassette)
Type: in vivo
Settings: female, SD, plasma, iv; rat cassette PK, i.v. 1 mg/kg
Source text: Experimental objective: To determine the drug concentration in the plasma of the rats at different times after intravenous and oral administration of the test compounds by LC/MS/MS using female SD rats as the test animals. To investigate the pharmacokinetic performance of the test compounds in rats and to evaluate the pharmacokinetic characteristics. […]
Counter-ions that a name gives are not always drawn.
Record the result as a number with its unit.

>  <compound>
CC/C(=C(/c1ccc(OCCNC/C=C/C(=O)N(C)C)nc1)c1[nH]c2ccccc2c1Cl)c1ccccc1 [Compound 3 monohydrochloride]

>  <AUC(0-t)>
3.55 µM·h

$$$$

Continue with the next compound.
Q: Returns the measured AUC(0-t) for the input compound. Input: CC/C(=C(/c1ccc(OCCNC/C=C/C(=O)N(C)C)nc1)c1[nH]c2ccccc2c1Cl)c1cccc(OC)c1 [Compound 4 monohydrochloride]
Ans: 1.9 µM·h

----------
experiment: Pharmacokinetics study in mice (cassette); assay type: in vivo; conditions: female, Balb/c, plasma, iv; mouse cassette PK, i.v. 1 mg/kg; read-out: Vdss
Where a name gives a salt, the structure may show the parent alone.
Assignment: determine reported Vd for the given compounds.
Answers are plain numbers, in L/kg.

>  <compound>
CC/C(=C(/c1ccc(OCCNC/C=C/C(=O)N(C)C)nc1)c1[nH]c2ccccc2c1Cl)c1cccc(OC)c1 [Compound 4 monohydrochloride]

>  <unit-abbrev>
L/kg

>  <Vd>
3.45

$$$$

Continue with the next compound.
Q: Returns the measured Vd for the input compound. Input: CC/C(=C(/c1ccc(OCCNC/C=C/C(=O)N(C)C)nc1)c1[nH]c2ccccc2c1Cl)c1ccccc1 [Compound 3 monohydrochloride]
Ans: 3.46

----------
test: Pharmacokinetics study in rats (cassette); type: in vivo; details: female, SD, plasma, iv; rat cassette PK, i.v. 1 mg/kg
Counter-ions that a name gives are not always drawn.
endpoint-label: half-life (h)
Give bare numbers, in h.

Please state half-life for every molecule in the list that follows.
1. CC/C(=C(/c1ccc(OCCNC/C=C/C(=O)N(C)C)nc1)c1[nH]c2ccccc2c1Cl)c1cccc(OC)c1 [Compound 4 monohydrochloride]
2. CC/C(=C(/c1ccc(OCCNC/C=C/C(=O)N(C)C)nc1)c1[nH]c2ccccc2c1Cl)c1ccccc1 [Compound 3 monohydrochloride]

Ans:
1. 3.98
2. 6.65

----------
experiment: Pharmacokinetics study in mice (cassette); assay type: in vivo; conditions: female, Balb/c, plasma, iv; mouse cassette PK, i.v. 1 mg/kg
Structures can show the parent of a compound that is named as a salt.
Assignment: determine reported AUC(0-t) for the given compounds.
Numbers only, in µM·h.

>  <compound>
CC/C(=C(/c1ccc(OCCNC/C=C/C(=O)N(C)C)nc1)c1[nH]c2ccccc2c1Cl)c1cccc(OC)c1 [Compound 4 monohydrochloride]

>  <endpoint-label>
AUC(0-t)

>  <observed-value>
1.1

$$$$

Continue with the next compound.
Q: Returns the measured AUC(0-t) for the input compound. Input: CC/C(=C(/c1ccc(OCCNC/C=C/C(=O)N(C)C)nc1)c1[nH]c2ccccc2c1Cl)c1ccccc1 [Compound 3 monohydrochloride]
Ans: 2.43

----------
assay: Pharmacokinetics study in rats (cassette); format: in vivo; conditions: female, SD, plasma, iv; rat cassette PK, i.v. 1 mg/kg; read-out: Vdss
Where a name gives a salt, the structure may show the parent alone.
Assignment: determine reported Vd for the given compounds.
Numbers only, in L/kg.

>  <compound>
CC/C(=C(/c1ccc(OCCNC/C=C/C(=O)N(C)C)nc1)c1[nH]c2ccccc2c1Cl)c1ccccc1 [Compound 3 monohydrochloride]

>  <unit-abbrev>
L/kg

>  <Vd>
4.46

$$$$

Continue with the next compound.
Q: Returns the measured Vd for the input compound. Input: CC/C(=C(/c1ccc(OCCNC/C=C/C(=O)N(C)C)nc1)c1[nH]c2ccccc2c1Cl)c1cccc(OC)c1 [Compound 4 monohydrochloride]
Ans: 4.86

----------
target: CYP2C19 (Homo sapiens); construct: tissue Corning Co., Ltd; host or cells: human liver microsomes; assay: Cytochrome P450 isoenzyme inhibition, CYP2C19; type: in vitro ADME; conditions: human liver microsomes; read-out: CYP enzyme inhibition (IC50) 2C19
Sequence (P33261 whole entry): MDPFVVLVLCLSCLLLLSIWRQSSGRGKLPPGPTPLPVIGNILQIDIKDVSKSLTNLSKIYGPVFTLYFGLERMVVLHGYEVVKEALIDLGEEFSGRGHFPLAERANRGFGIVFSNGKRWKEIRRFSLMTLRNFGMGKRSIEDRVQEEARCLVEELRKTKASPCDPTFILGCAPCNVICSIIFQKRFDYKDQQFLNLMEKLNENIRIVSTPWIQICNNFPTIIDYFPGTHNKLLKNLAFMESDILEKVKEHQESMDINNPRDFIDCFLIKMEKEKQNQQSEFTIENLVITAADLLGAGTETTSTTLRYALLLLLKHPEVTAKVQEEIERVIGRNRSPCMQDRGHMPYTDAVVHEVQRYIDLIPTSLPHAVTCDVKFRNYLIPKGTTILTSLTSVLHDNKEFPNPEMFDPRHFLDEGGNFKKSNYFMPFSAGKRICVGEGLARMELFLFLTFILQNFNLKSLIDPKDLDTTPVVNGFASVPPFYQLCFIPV
Counter-ions that a name gives are not always drawn.
endpoint-label: pIC50
Answers are plain numbers, as −log10 of the molar value.

Q: # returns recorded pIC50 (system: CYP2C19 (Homo sapiens)) for CC/C(=C(/c1ccc(OCCNC/C=C/C(=O)N(C)C)nc1)c1[nH]c2ccccc2c1Cl)c1ccccc1 [Compound 3 monohydrochloride]
Ans: 5.41

----------
assay: Pharmacokinetics study in rats (cassette); assay type: in vivo; settings: female, SD, plasma, po; rat cassette PK, p.o. 2 mg/kg
Where a name gives a salt, the structure may show the parent alone.
Assignment: determine reported bioavailability for the given molecules.

Please state bioavailability for every molecule in the list that follows.
1. CC/C(=C(/c1ccc(OCCNC/C=C/C(=O)N(C)C)nc1)c1[nH]c2ccccc2c1Cl)c1ccccc1 [Compound 3 monohydrochloride]
2. CC/C(=C(/c1ccc(OCCNC/C=C/C(=O)N(C)C)nc1)c1[nH]c2ccccc2c1Cl)c1cccc(OC)c1 [Compound 4 monohydrochloride]

Ans:
1. 73.3%
2. 48.4%

----------
molecular target: UniProt:P11712
Sequence (P11712 whole entry): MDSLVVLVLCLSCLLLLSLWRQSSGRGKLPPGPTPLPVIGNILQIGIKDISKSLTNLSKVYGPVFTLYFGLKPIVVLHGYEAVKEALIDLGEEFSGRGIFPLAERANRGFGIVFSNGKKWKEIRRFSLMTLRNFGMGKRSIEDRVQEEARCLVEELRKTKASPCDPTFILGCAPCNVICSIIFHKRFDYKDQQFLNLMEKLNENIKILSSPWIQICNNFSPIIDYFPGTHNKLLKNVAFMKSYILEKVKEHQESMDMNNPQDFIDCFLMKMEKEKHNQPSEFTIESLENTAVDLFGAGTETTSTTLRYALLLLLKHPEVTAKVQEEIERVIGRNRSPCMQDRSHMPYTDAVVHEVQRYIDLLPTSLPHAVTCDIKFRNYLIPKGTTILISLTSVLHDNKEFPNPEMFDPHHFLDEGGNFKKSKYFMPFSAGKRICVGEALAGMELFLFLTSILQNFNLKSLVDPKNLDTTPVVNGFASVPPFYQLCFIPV
Where a name gives a salt, the structure may show the parent alone.
endpoint-label: IC50

Q: Returns the measured IC50 for the input compound. Input: CC/C(=C(/c1ccc(OCCNC/C=C/C(=O)N(C)C)nc1)c1[nH]c2ccccc2c1Cl)c1ccccc1 [Compound 3 monohydrochloride]
Ans: 8.4 µM
